Test system: MRC-5 fibroblasts
Assay: In vitro cytotoxicity assay on MRC-5 fibroblasts
Type: cell-based
Details: IC50 (MRC-5)/MIC (H37Rv)
measureName: SI (selectivity index)
Just the number, please, no unit after it.

Solved cases (2 shown):
[
  {
    "compound": "Cc1cn(C2CCN(CCc3cccc(Oc4cccc(Cl)c4)c3)CC2)c(=O)[nH]c1=O [Compound 21j]",
    "reportedResult": 1.33
  },
  {
    "compound": "Cc1cn(C2CCN(CCc3cccc(Oc4ccc(Cl)cc4)c3)CC2)c(=O)[nH]c1=O [Compound 21h]",
    "reportedResult": 0.46
  }
]

Now turn to the next compound.
**Query** Fill in SI (selectivity index) for record Cc1cn(C2CCN(CCc3cccc(OCc4ccccc4Cl)c3)CC2)c(=O)[nH]c1=O [Compound 21o]
**Result** 0.37
